Known protein stability index of a selection of variants
B1: FAM50A (parent)
chain: KKREKQREQMEQMKQRIAEENIMK

# Variants of: B1
# experiment description: protein stability index of a GFP-peptide fusion (GPS, HEK-293T) (PSI 1-6); higher = more stable;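 note: lentivirally expressed fusions sorted by FACS into six bins by GFP to DsRed ratio, PSI derived from sequencing read proportions per bin multiplied by bin number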
# experimental context: c terminus: a fixed tail appended
Keep it simple and answer with nothing but the number.

>>> print(df.to_string())
   mutation_key  numeric_value
0           K1R           4.48
1          A18P           4.79
2           R7D           5.39

The value of protein stability index measured for the variant Q12R turned out to be 4.39

The value of protein stability index measured for the variant A18D turned out to be 5.35

The value of protein stability index measured for the variant Q15D turned out to be 5.02

The value of protein stability index measured for the variant K24H turned out to be 4.97

The value of protein stability index measured for the variant K14R turned out to be 4.59

The value of protein stability index measured for the variant I22C turned out to be 5.22

The value of protein stability index measured for the variant E19M turned out to be 4.09

The value of protein stability index measured for the variant N21E turned out to be 5.12

The value of protein stability index measured for the variant M23G turned out to be 5

The value of protein stability index measured for the variant Q15R turned out to be 4.73

The value of protein stability index measured for the variant E20I turned out to be 4
